Reference for the values: a melting point compilation (Tetko et al.; mined from patent text by program, amines drawn as free bases though some values may be those of a salt)

outcome-measure: melting point

{"compound": "COc1cccc2c1nc(C(F)F)n2-c1nc(N2CCOCC2)nc(N(C)c2cncnc2)n1", "obs-value": "214 to 217 °C"}
{"compound": "CC(C)(C)N1CCN(c2cc3c(cc2F)c(=O)c(C(=O)O)cn3C(C)(C)C)CC1", "obs-value": "> 270 °C"}
{"compound": "COc1ccc2cc(-c3ccc(Br)cc3)[nH]c(=O)c2c1", "obs-value": "> 250 °C"}
{"compound": "NC(=O)c1cccc(C(N)=O)c1[N+](=O)[O-]", "obs-value": "283 to 285 °C"}
{"compound": "FC(F)(F)C1(c2cc(Cl)cc(Cl)c2)CC(c2ccc(Br)cc2)=NO1 (stereo not drawn)", "obs-value": "122 to 124 °C"}
{"compound": "CN(C)C1CCN(C(=O)N2CCC(c3[nH]nc4c3C(=O)c3c(NC(=O)NN5CCOCC5)cccc3-4)CC2)CC1", "obs-value": "172 to 174 °C"}
{"compound": "CC(C)(C)CC(C)(C)c1cc(-n2nc3ccccc3n2)c(O)c(C(C)(C)c2ccccc2)c1", "obs-value": "109 to 111 °C"}
{"compound": "COc1ccc2c(c1)cc(-c1nc(C)no1)n2-c1ccc(CNC(=O)C2(NC(=O)OC(C)(C)C)CC2)cc1", "obs-value": "212 to 214 °C"}
{"compound": "OP(O)C(NC(c1ccccc1)c1ccccc1)c1cccs1 (stereo not drawn)", "obs-value": "201 °C"}
{"compound": "COC(=O)c1ccc(/C=C(\\C)c2ccc3c(c2)CCCCN3C)cc1", "obs-value": "106 °C"}
{"compound": "C#CCOC(=O)C1=C(C)NC(C)=C(C(=O)OC)C1c1ccccc1C(F)(F)F (stereo not drawn)", "obs-value": "115 °C"}
{"compound": "Cc1cc(-c2ccc(O)nc2)cc(C=O)c1N", "obs-value": "231 to 234 °C"}
{"compound": "CC(C)(C)OC(=O)N1CCc2c(cc(O)c(O)c2F)C(c2ccc(O)cc2)C1 (stereo not drawn)", "obs-value": "100 to 105 °C"}
{"compound": "O=C(Cc1ccc(F)cc1F)c1ccc(Cl)nc1", "obs-value": "93 to 95 °C"}
{"compound": "NC(c1ccc2ccccc2c1)P(O)O (stereo not drawn)", "obs-value": "237 to 239 °C"}
{"compound": "CC(=O)c1ccc(NS(C)(=O)=O)c(Oc2ccccc2)c1", "obs-value": "113 to 114 °C"}
{"compound": "COc1ccc(CNC(=O)n2cc(F)c(=O)[nH]c2=O)c(OC)c1", "obs-value": "154 °C"}
{"compound": "O=C1OC(N2C(=O)NC(=O)C23C(=O)N(Cc2ccc(Cl)c(Cl)c2)c2ccccc23)c2ccccc21 (stereo not drawn)", "obs-value": "154 to 158 °C"}
{"compound": "C#CCC(CC#C)NC(=O)C(F)(F)F", "obs-value": "55 to 57 °C"}
{"compound": "CCCOC(=O)c1cc(-n2c(OC)nc(C(F)(F)F)cc2=O)c(F)cc1Cl", "obs-value": "55 to 57 °C"}
{"compound": "CCNC(=O)n1nc(Oc2c(Cl)cc(C(F)(F)F)cc2Cl)c(Cl)c1C", "obs-value": "85 to 86 °C"}
{"compound": "O=C1CCC(=O)N1CC(O)COc1ccccc1 (stereo not drawn)", "obs-value": "130 °C"}
{"compound": "COc1cc(C#N)cc2c1OC(C)(C)C2", "obs-value": "73 to 74 °C"}

---

outcome-measure: melting point

{"molecule": "CCC1CCCCN(C(=O)C2Cc3ccccc3N2c2ccc(=O)n(C)n2)C1 (stereo unspecified)", "obs-value": "90 to 95 °C"}
{"molecule": "CCCC(O)(CC)C(C)=NO (stereo unspecified)", "obs-value": "59 °C"}
{"molecule": "CCOC(=O)CCCCC1CC(n2c3ccccc3c3ccccc32)c2ccccc2N1C(=O)c1ccc(OC)c(OC)c1 (stereo unspecified)", "obs-value": "195 to 196 °C"}
{"molecule": "CCOC(=O)c1oc2ccc(Cl)cc2c1C", "obs-value": "80 to 82 °C"}
{"molecule": "Cc1c(C(=O)NCc2ccccc2)nc(-n2ccc(OCc3ccccc3)cc2=O)n1C", "obs-value": "190 to 191 °C"}
{"molecule": "COc1ccc(-c2cn(-c3cc4c(=O)n(NS(C)(=O)=O)c(=O)[nH]c4cc3C(F)(F)F)cn2)cc1", "obs-value": "293 to 294 °C"}
{"molecule": "CC(C)c1ccc(N(Cc2ccc(N(C)C)cc2)C(=O)C2CC(=O)Nc3ccccc32)cc1 (stereo unspecified)", "obs-value": "170 °C"}
{"molecule": "C=C1CCC2C3CCC4CC(O)CCC4(C)C3C(N)CC12C (stereo unspecified)", "obs-value": "144 to 149 °C"}
{"molecule": "O=C1c2cc(Sc3ccccc3)c(Sc3ccccc3)cc2C(=O)c2c1c(O)c1cc(Sc3ccccc3)c(Sc3ccccc3)cc1c2O", "obs-value": "> 260 °C"}
{"molecule": "O=S(=O)(CCOc1ccc(Cl)cc1)c1ccc(Cl)cc1", "obs-value": "108 °C"}
{"molecule": "CC(=O)Nc1ccc(-c2ccc(CCCC(=O)O)cc2)cc1Br", "obs-value": "155 to 156 °C"}

---

outcome-measure: melting point

{"molecule": "COc1cccc(-c2nc(Cl)nc(Cl)n2)c1", "obs-value": "114 °C"}
{"molecule": "C/C(=C\\c1ccc(OCCN2CCOCC2)cc1)c1ccc2c(c1)C(C)(C)CCC2(C)C", "obs-value": "107 to 109 °C"}
{"molecule": "Cc1ccc(N(C)S(=O)(=O)c2cccs2)c2[nH]c(C3=NCC(CC(N)=O)S3)cc12 (stereo unspecified)", "obs-value": "120 to 121 °C"}
{"molecule": "CC(C)c1cccc(C(C)C)c1N1C(=O)c2ccccc2C1=O", "obs-value": "172 °C"}
{"molecule": "CC#CC(O)(C#CC)c1cc(-c2cccc(Cl)c2)ccc1N", "obs-value": "112 to 114 °C"}
{"molecule": "COc1cc(C(OC(C)=O)C(COC(C)=O)[N+](=O)[O-])ccc1OC(C)=O (stereo unspecified)", "obs-value": "97 to 100 °C"}

---

Each entry below lists one item and its recorded melting point value.

{"compound-smiles": "Cc1[nH]cnc1-c1cc(C(C)(C)C)c(O)c(C(C)(C)C)c1", "melting point": "207 to 209 °C"}
{"compound-smiles": "CC1(C)CC(=C(c2ccc(O)cc2)c2ccc(OCC(=O)O)cc2)CC(C)(C)C1", "melting point": "163 to 164 °C"}
{"compound-smiles": "CCNCCNc1ccc(NCCN(CC)CC)c2c1C(=O)c1c(O)ccc(O)c1C2=O", "melting point": "161 to 163 °C"}
{"compound-smiles": "COc1ccc(SCCSc2ccc(OC)cc2)cc1", "melting point": "108 to 110 °C"}
